Where these numbers come from: ChEMBL document CHEMBL4007472

// reported IC50 for each item listed
Biological target: Disintegrin and metalloproteinase domain-containing protein 17 (Homo sapiens, UniProt P78536)
Sequence (P78536 whole entry, the tested form may be a part): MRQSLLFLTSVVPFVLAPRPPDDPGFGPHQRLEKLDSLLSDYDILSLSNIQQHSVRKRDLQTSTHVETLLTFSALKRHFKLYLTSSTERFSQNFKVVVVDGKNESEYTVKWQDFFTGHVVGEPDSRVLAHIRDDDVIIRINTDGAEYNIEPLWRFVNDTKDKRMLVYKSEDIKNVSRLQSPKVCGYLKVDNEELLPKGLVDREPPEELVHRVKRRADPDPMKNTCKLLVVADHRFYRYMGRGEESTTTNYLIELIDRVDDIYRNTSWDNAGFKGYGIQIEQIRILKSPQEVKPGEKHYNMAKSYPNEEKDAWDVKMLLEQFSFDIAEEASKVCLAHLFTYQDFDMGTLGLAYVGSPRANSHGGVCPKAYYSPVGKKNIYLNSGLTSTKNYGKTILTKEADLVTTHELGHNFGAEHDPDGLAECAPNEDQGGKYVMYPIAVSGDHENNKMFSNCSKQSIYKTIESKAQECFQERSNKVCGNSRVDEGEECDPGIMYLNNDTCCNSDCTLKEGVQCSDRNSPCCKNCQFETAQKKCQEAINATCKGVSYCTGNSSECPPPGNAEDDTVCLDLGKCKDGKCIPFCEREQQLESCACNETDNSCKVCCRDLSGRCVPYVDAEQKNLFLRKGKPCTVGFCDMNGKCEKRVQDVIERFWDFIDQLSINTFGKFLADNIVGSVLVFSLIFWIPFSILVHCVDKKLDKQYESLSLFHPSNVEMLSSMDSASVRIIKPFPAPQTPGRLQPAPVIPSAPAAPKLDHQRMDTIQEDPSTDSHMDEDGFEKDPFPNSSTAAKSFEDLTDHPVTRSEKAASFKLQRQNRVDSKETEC
Test: Inhibition of recombinant human TACE catalytic domain using Mca-Pro-Leu-Ala-Gln-Ala-Val-Dpa-Arg-Ser-Ser-Ser-Arg-NH2 as substrate after 2 hrs by fluorescence assay
Give the number; µM is assumed, so skip it.

Ask: // IC50 lookup, key: `CC#CCOc1ccc(S(=O)(=O)[C@@H]2C[C@@H](C(=O)NO)N(C(C)=O)C2)cc1`
Reply: 10

Ask: Same question for Cc1cc(COc2ccc(S(=O)(=O)N3CCC(C)(C(=O)NO)C3)cc2)c2ccccc2n1 (centres undefined) please.
Reply: 0.035

###

Target: Disintegrin and metalloproteinase domain-containing protein 17 (Homo sapiens, UniProt P78536)
Assay: Inhibition of TACE in human PBMC assessed as inhibition of LPS-stimulated TNFalpha production
Dear colleague, classification is by IC50, with ranges listed here: interval 1: < 0.8 µM; interval 2: ≥ 0.8 µM and < 4 µM; interval 3: ≥ 4 µM

Worked cases, answers included:
COc1cc(COc2ccc3c(c2)NCCN([C@H](C)C(=O)NO)S3)cc(OC)c1 | interval 1
CC(C)C[C@H](C(=O)NO)N1CCNc2cc(OCc3ccccc3)ccc2S1 | interval 1
C[C@H](C(=O)NO)N1CCNc2cc(Oc3ccc(C(F)(F)F)cc3)ccc2S1 | interval 2
CC(C)C[C@H](C(=O)NO)N1CCNc2cc(O)ccc2S1 | interval 3

As a next step, examine the compound that follows.
Ask: Hey, which category is `Cc1cc(COc2ccc3c(c2)NCCN([C@H](C)C(=O)NO)S3)cc(C)n1` in, do you know?
Reply: interval 2

###

// reported solubility for each item listed
Test: Aqueous solubility of the compound
Type: physicochemical
Give the number; µM is assumed, so skip it.

Worked cases, answers included:
Cc1cc(COc2ccc(S(=O)(=O)N3CCN(C(=O)C4CC4)C(C(=O)NO)C3)cc2)c2c(n1)CCCC2 (stereo unspecified) | 58
CC1(C)SCCN(S(=O)(=O)c2ccc(OCC#CCO)cc2)[C@H]1C(=O)NO | 90
CC(=O)N1CCN(S(=O)(=O)c2ccc(OCc3cc(C)nc4c3CCCC4)cc2)CC1C(=O)NO (stereo unspecified) | 61

Ask: // solubility lookup, key: Cc1cc(COc2ccc(S(=O)(=O)N3CCC(C)(C(=O)NO)C3)cc2)c2ccccc2n1 (stereo unspecified)
Reply: 41

Ask: Same question for Cc1cc(COc2ccc(S(=O)(=O)N3CCN(C(=O)C(C)(C)C)C(C(=O)NO)C3)cc2)c2c(n1)CCCC2 (stereo unspecified) please.
Reply: 20

###

Experiment: Fraction unbound in human plasma at 5 uM after 4 hrs by LC-MS/MS based equilibrium dialysis method
Assay type: ADME, cell-free
Reported Metric: fraction unbound at 4 h, 5 µM
Please give the numeric answer without any surrounding text.

Ask: // fraction unbound at 4 h, 5 µM lookup, key: Cc1cc(COc2ccc(S(=O)(=O)N3CCN(C(=O)C(C)(C)C)C(C(=O)NO)C3)cc2)c2c(n1)CCCC2 (stereo unspecified)
Reply: 0.03

###

Target: Disintegrin and metalloproteinase domain-containing protein 17 (Mus musculus)
Sequence (Q9Z0F8 whole entry, the tested form may be a part): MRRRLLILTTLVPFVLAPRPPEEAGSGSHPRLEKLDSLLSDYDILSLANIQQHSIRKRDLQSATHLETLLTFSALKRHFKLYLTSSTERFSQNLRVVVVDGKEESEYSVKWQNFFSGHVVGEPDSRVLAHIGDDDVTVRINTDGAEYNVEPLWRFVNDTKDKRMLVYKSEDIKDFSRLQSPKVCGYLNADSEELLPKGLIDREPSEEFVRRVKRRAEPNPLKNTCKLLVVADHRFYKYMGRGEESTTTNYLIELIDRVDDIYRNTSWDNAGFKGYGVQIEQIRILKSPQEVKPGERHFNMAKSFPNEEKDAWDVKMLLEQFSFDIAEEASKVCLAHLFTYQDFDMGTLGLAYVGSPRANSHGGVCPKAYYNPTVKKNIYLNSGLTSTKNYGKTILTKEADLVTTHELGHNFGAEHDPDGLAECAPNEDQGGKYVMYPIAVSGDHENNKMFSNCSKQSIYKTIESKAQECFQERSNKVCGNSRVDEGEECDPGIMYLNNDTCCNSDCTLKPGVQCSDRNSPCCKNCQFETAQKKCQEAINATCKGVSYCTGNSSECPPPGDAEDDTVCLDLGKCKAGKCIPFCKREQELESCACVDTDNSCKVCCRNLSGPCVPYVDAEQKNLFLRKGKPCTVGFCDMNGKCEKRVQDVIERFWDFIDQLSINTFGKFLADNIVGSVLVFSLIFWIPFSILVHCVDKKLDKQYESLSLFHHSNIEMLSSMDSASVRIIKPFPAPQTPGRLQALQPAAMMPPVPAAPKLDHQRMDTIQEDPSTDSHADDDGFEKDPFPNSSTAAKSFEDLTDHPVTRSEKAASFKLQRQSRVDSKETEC
Test: Inhibition of TACE in mouse RAW264.7 cells assessed as inhibition of LPS-stimulated TNFalpha production pretreated for 1 hr followed by LPS stimulation for 4 hrs by ELISA
Type: cell-based
Settings: read-out: IC50
Reported Metric: pIC50
Reminder that pIC50 is minus the log10 of a molar concentration.

Worked cases, answers included:
CC(=O)N1CCC(NS(=O)(=O)c2ccc(OCc3cc(C)nc4ccccc34)cc2)C(C(=O)NO)C1 (centres undefined) | 7.70
Cc1cc(COc2ccc(S(=O)(=O)N[C@@H]3CN(C(=O)OC(C)(C)C)C[C@@H]3C(=O)NO)cc2)c2ccccc2n1 (relative stereo) | 7.42
CCNC(=O)N1C[C@H](C(=O)NO)[C@H](NS(=O)(=O)c2ccc(OCc3cc(C)nc4ccccc34)cc2)C1 (relative stereo) | 7.29

Consider the additional compound presented here.
Ask: // pIC50 lookup, key: `CC[C@]1(C(=O)NO)CCC[C@H]1NS(=O)(=O)c1ccc(OCc2cc(C)nc3ccccc23)cc1`
Reply: 6.00

###

Biological target: Disintegrin and metalloproteinase domain-containing protein 17 (Homo sapiens)
Experiment: Inhibition of recombinant TACE catalytic domain (unknown origin) using Abz-LAQAVRSSSR-Dpa as substrate preincubated for 10 mins followed by substrate addition measured after 10 mins by FRET assay
Settings: read-out: pIC50 (converted)
Labelling: IC50 reported below 3 nM becomes Met; at or above becomes Not met.

Worked cases, answers included:
Cc1cc(COc2ccc(S(=O)(=O)N[C@@H]3COC[C@@H]3C(=O)NO)cc2)c2ccccc2n1 | Met
Cc1cc(COc2ccc(S(=O)(=O)NC3CCN(CCO)CC3C(=O)NO)cc2)c2ccccc2n1 (stereo not drawn) | Not met
CNC(=O)N1CC[C@@H](NS(=O)(=O)c2ccc(OCc3cc(C)nc4ccccc34)cc2)[C@@](C)(C(=O)NO)C1 | Not met
Cc1cc(COc2ccc(S(=O)(=O)N[C@@H]3CCN(C=O)C[C@]3(O)C(=O)NO)cc2)c2ccccc2n1 | Met
CC(=O)N1CCC(C(=O)NO)C(NS(=O)(=O)c2ccc(OCc3cc(C)nc4ccccc34)cc2)C1 (stereo not drawn) | Met
Cc1cc(COc2ccc(S(=O)(=O)N[C@@H]3CCN(S(=O)(=O)C(C)C)C[C@]3(C)C(=O)NO)cc2)c2ccccc2n1 | Met
CC(=O)N1CC[C@@H](NS(=O)(=O)c2ccc(OCc3cc(C)nc4ccccc34)cc2)[C@@](C)(C(=O)NO)C1 | Not met

Ask: Decide: IC50 of `Cc1cc(COc2ccc(S(=O)(=O)N[C@@H]3CN(C(=O)NC(C)(C)C)CC[C@@H]3C(=O)NO)cc2)c2ccccc2n1` strictly below 3 nM?
Reply: Met

###

// reported IC50 for each item listed
Molecular target: Disintegrin and metalloproteinase domain-containing protein 17 (Homo sapiens, UniProt P78536)
Assay: Inhibition of recombinant TACE catalytic domain (unknown origin) using Abz-LAQAVRSSSR-Dpa as substrate preincubated for 10 mins followed by substrate addition measured after 10 mins by FRET assay
Details: read-out: IC50
Give the number; nM is assumed, so skip it.

Worked cases, answers included:
Cc1cc(COc2ccc(S(=O)(=O)N[C@@H]3CCC[C@]3(F)C(=O)NO)cc2)c2ccccc2n1 | 0.6
Cc1cc(COc2ccc(S(=O)(=O)N(C)[C@H]3CCCC[C@@H]3C(=O)NO)cc2)c2ccccc2n1 (relative stereo) | 1.4
Cc1cc(COc2ccc(S(=O)(=O)N[C@@H]3CCN(C(=O)OC(C)(C)C)C[C@@H]3C(=O)NO)cc2)c2ccccc2n1 | 0.5

Consider the additional molecule presented here.
Ask: // IC50 lookup, key: Cc1cc(COc2ccc(S(=O)(=O)N[C@H]3CCN(C(=O)NC(C)(C)C)C[C@H]3C(=O)NO)cc2)c2ccccc2n1 (relative stereo)
Reply: 0.6

###

Test: Stability in human liver microsomes assessed as parent compound remaining at 1 uM after 15 mins by LC-MS/MS analysis
Format: ADME, microsome
Settings: read-out: Stability
Labelling: remaining at […], 1 µM reported below 80% becomes Y; at or above becomes N.

Worked cases, answers included:
COC(=O)N1CCN(S(=O)(=O)c2ccc(OCc3cc(C)nc4c3CCCC4)cc2)CC1C(=O)NO (configuration not stated) | N
Cc1cc(COc2ccc(S(=O)(=O)N3CCN(C(=O)C4CC4)C(C(=O)NO)C3)cc2)c2c(n1)CCCC2 (configuration not stated) | N
Cc1cc(COc2ccc(S(=O)(=O)N3CCN(C4CCC4)C(C(=O)NO)C3)cc2)c2c(n1)CCCC2 (configuration not stated) | Y
CC(=O)N1CCN(S(=O)(=O)c2ccc(OCc3cc(C)nc4c3CCCC4)cc2)CC1C(=O)NO (configuration not stated) | N
Cc1cc(COc2ccc(S(=O)(=O)N3CCN(C(=O)C4CCC4)C(C(=O)NO)C3)cc2)c2c(n1)CCCC2 (configuration not stated) | N

Ask: Decide: remaining at […], 1 µM of Cc1cc(COc2ccc(S(=O)(=O)N3CCN(C(=O)C(C)(C)C)C(C(=O)NO)C3)cc2)c2c(n1)CCCC2 (configuration not stated) strictly below 80%?
Reply: Y

Ask: Same question for Cc1cc(COc2ccc(S(=O)(=O)N3CCN(S(C)(=O)=O)C(C(=O)NO)C3)cc2)c2c(n1)CCCC2 (configuration not stated) please.
Reply: N

Ask: Same question for Cc1cc(COc2ccc(S(=O)(=O)N3CCN(C(=O)C(C)C)C(C(=O)NO)C3)cc2)c2c(n1)CCCC2 (configuration not stated) please.
Reply: N

Ask: Same question for CCC(=O)N1CCN(S(=O)(=O)c2ccc(OCc3cc(C)nc4c3CCCC4)cc2)CC1C(=O)NO (configuration not stated) please.
Reply: N

Ask: Same question for Cc1cc(COc2ccc(S(=O)(=O)N3CCN(C(=O)c4ccccc4)C(C(=O)NO)C3)cc2)c2c(n1)CCCC2 (configuration not stated) please.
Reply: N

Ask: Same question for Cc1cc(COc2ccc(S(=O)(=O)N3CCN(C(=O)CC(C)C)C(C(=O)NO)C3)cc2)c2c(n1)CCCC2 (configuration not stated) please.
Reply: Y
